Measured pEC50 accompanies every entry in the list below.
# tested-system: UniProtKB P04150
# Format: functional
# Description: Agonist activity at GR by GRE activation assay
pEC50: −log10 of the molar value.

For orientation, consider the following solved cases.
Item: `COc1c(O)ccc2c1-c1ccc3c(c1/C(=C/c1ccc(OC(F)(F)F)cc1)O2)C(C)=CC(C)(C)N3` Test system: UniProtKB P04150 Read-out: pEC50 Value: ?
< 6.00

Quick one: `COc1c(O)ccc2c1-c1ccc3c(c1/C(=C/c1cccc(OC(F)(F)F)c1)O2)C(C)=CC(C)(C)N3`
< 6.00

Can you handle `COc1c(O)ccc2c1-c1ccc3c(c1/C(=C/c1cccc(Oc4ccccc4)c1)O2)C(C)=CC(C)(C)N3` next?
< 6.00

Others:
Form entry - test system: UniProtKB P04150; read-out: pEC50; compound: `COc1ccc(/C=C2\Oc3ccc(O)c(OC)c3-c3ccc4c(c32)C(C)=CC(C)(C)N4)cc1`
6.88

Here is the next compound: `CCc1ccc(/C=C2\Oc3ccc(O)c(OC)c3-c3ccc4c(c32)C(C)=CC(C)(C)N4)cc1`
6.68

Input `COc1c(O)ccc2c1-c1ccc3c(c1/C(=C/c1cccc(C(F)(F)F)c1)O2)C(C)=CC(C)(C)N3`
< 6.00

Next record, please: `COc1c(O)ccc2c1-c1ccc3c(c1/C(=C/c1ccc(F)cc1S(=O)(=O)N1CCCCC1)O2)C(C)=CC(C)(C)N3`
6.97

Entry `COc1c(O)ccc2c1-c1ccc3c(c1/C(=C/c1ccc(-c4ccccc4)cc1)O2)C(C)=CC(C)(C)N3` please
7.48

----------
pIC50 by entry:
# tested-system: Glucocorticoid receptor (Homo sapiens, UniProt P04150)
# Sequence (P04150 whole entry): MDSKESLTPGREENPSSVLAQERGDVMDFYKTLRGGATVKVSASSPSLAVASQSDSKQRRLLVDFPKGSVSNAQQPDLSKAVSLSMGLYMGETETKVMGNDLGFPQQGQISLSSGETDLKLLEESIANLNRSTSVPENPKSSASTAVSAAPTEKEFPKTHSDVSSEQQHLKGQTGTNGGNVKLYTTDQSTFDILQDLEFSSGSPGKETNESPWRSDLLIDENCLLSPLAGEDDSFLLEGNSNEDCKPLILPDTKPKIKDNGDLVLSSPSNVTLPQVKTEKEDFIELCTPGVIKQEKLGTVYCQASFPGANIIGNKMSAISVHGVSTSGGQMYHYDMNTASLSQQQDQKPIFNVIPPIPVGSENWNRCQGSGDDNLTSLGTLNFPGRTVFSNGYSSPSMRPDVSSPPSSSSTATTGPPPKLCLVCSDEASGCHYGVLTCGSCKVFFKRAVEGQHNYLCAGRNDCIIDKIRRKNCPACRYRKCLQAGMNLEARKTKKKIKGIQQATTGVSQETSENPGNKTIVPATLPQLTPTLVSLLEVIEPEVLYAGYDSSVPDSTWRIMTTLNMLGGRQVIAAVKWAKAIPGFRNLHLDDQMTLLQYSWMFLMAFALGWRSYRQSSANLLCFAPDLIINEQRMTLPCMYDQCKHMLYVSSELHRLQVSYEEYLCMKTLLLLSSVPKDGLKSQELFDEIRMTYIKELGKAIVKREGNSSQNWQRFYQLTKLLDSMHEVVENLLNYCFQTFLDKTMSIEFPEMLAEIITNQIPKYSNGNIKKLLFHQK
# Format: functional
# Description: Activity at GR assessed as repression of TNFalpha and IL 1-beta induced E-selectin response
Keep it numeric: pIC50 is minus log10 of the concentration in mol/L.

Solved cases below.
Field request: pIC50 | item: `COc1c(O)ccc2c1-c1ccc3c(c1/C(=C/c1cccc(C(F)(F)F)c1)O2)C(C)=CC(C)(C)N3`
8.39

Follow-up item: `COc1c(O)ccc2c1-c1ccc3c(c1/C(=C/c1ccc(F)cc1S(=O)(=O)N1CCCCC1)O2)C(C)=CC(C)(C)N3`
7.66

Below: the item to evaluate.
Return reported pIC50; argument: `COc1c(O)ccc2c1-c1ccc3c(c1/C(=C/c1ccc(-c4ccccc4)cc1)O2)C(C)=CC(C)(C)N3`
7.11

----------
Reported values of EC50 for individual entries
# tested-system: Glucocorticoid receptor (Homo sapiens, UniProt P04150)
# Type: functional

Here is how some compounds turned out for EC50.
Recorded EC50 of `COc1c(O)ccc2c1-c1ccc3c(c1/C(=C/c1cccc(-c4ccccc4)c1)O2)C(C)=CC(C)(C)N3` , please.
> 1000 nM

Let us now turn to `COc1c(O)ccc2c1-c1ccc3c(c1/C(=C/c1cccc(-c4cccnc4)c1)O2)C(C)=CC(C)(C)N3`
> 1000 nM

Consider the additional compound presented here.
So what's the measured EC50 for this one? `COc1c(O)ccc2c1-c1ccc3c(c1/C(=C/c1cccc(-c4ccsc4)c1)O2)C(C)=CC(C)(C)N3`
> 1000 nM
